The reported numbers originate from paper PMC3469757.

# EXPERIMENTAL_SYSTEM: human TRPV1 (Homo sapiens, UniProt Q8NER1)
# Sequence (Q8NER1 whole entry): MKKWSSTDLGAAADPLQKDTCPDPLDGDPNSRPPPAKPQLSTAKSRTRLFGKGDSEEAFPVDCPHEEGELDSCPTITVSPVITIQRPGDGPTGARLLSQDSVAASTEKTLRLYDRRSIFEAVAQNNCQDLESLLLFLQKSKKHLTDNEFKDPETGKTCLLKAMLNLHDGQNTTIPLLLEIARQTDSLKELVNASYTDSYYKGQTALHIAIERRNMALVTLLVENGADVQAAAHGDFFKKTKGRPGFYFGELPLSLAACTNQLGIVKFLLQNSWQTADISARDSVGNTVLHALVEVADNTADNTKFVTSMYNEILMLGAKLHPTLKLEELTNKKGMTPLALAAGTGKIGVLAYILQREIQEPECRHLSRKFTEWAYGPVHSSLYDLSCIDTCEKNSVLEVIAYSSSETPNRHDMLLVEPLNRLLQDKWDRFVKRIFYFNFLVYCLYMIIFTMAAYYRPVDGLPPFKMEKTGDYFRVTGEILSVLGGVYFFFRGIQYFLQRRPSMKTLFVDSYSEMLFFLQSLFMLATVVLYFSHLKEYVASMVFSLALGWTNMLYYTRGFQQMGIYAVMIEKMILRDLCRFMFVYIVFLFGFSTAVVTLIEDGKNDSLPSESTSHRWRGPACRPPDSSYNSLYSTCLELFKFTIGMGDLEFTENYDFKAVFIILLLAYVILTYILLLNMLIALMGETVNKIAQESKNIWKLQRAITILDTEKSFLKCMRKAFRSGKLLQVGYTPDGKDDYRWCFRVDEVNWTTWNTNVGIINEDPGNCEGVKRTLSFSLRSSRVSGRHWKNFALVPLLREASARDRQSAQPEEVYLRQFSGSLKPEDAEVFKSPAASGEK
# PROTOCOL: Capsaicin assay
# Assay type: cell-based
# PROTOCOL_CONDITIONS: hTRPV1 in CHO cells
OUTCOME_MEASURE: hTRPV1 antagonism in words

[[record]]
compound = "CC(C(=O)NCc1ccc(C(F)(F)F)nc1)c1ccc(NS(C)(=O)=O)c(F)c1 (stereo not shown) [Compound 12]"
result = "weak antagonist"

[[record]]
compound = "CC(C(=O)NCc1ccc(C(F)(F)F)nc1N1CCNCC1)c1ccc(NS(C)(=O)=O)c(F)c1 (stereo not shown) [Compound 81]"
result = "weak antagonist"


* * *

Below, each entry is listed with its recorded pIC50.
# EXPERIMENTAL_SYSTEM: human TRPV1 (Homo sapiens)
# PROTOCOL: pH assay
# PROTOCOL_CONDITIONS: read-out: IC50 [pH]; hTRPV1 in CHO cells, activator pH 6.0 to 6.3
pIC50: −log10 of the molar value.
OUTCOME_MEASURE: pIC50

[[record]]
molecule = "CC(C(=O)NCc1ccc(C(F)(F)F)nc1N1CCNCC1)c1ccc(NS(C)(=O)=O)c(F)c1 (stereo not shown)"
outcome_measure = "pIC50"
result = "< 5.00"

[[record]]
molecule = "CC1CCCN(c2nc(C(F)(F)F)ccc2CNC(=O)C(C)c2ccc(NS(C)(=O)=O)c(F)c2)C1 (stereo not shown)"
outcome_measure = "pIC50"
result = "< 5.00"

[[record]]
molecule = "CC(C(=O)NCc1ccc(C(F)(F)F)nc1N1CCC(N2CCCCC2)CC1)c1ccc(NS(C)(=O)=O)c(F)c1 (stereo not shown)"
outcome_measure = "pIC50"
result = "< 5.00"

[[record]]
molecule = "CC(C(=O)NCc1ccc(C(F)(F)F)nc1N1CCS(=O)(=O)CC1)c1ccc(NS(C)(=O)=O)c(F)c1 (stereo not shown)"
outcome_measure = "pIC50"
result = "< 5.00"

